For each of the molecules below, state its fraction unbound at 1 h, 20 µM.
Test: Plasma protein binding in rat at 20 uM after 1 hr by HPLC analysis
Assay type: ADME, cell-free
Conditions: read-out: PPB (converted)

Retrieve fraction unbound at 1 h, 20 µM measured for COCCOCCOCCOCCCNc1nc(C(=O)NCCOCCOCCOCCOCCOCCOCCOCCOCCOCCOCCOCCOC)c(NCCCOCCOCCOCCOC)nc1C(=O)NCCOCCOCCOCCOCCOCCOCCOCCOCCOCCOCCOCCOC and print it.
1

Quick one: give measured fraction unbound at 1 h, 20 µM for COCCOCCOCCNc1nc(C(=O)NCCOCCOCCOCCOCCOCCOCCOCCOCCOCCOCCOCCOCCOCCOCCOCCOCCOCCOCCOCCOCCOCCOCCOCCOC)c(NCCOCCOCCOC)nc1C(=O)NCCOCCOCCOCCOCCOCCOCCOCCOCCOCCOCCOCCOCCOCCOCCOCCOCCOCCOCCOCCOCCOCCOCCOCCOC
0.89

Tell me measured fraction unbound at 1 h, 20 µM for COCCOCCOCCOCCOCCOCCOCCOCCOCCOCCOCCOCCCNc1nc(C(=O)NCCOCCOCCOCCOCCOCCOCCOCCOCCOCCOCCOCCOCCOCCOCCOCCOCCOCCOCCOCCOCCOCCOCCOCCOC)c(NCCCOCCOCCOCCOCCOCCOCCOCCOCCOCCOCCOCCOC)nc1C(=O)NCCOCCOCCOCCOCCOCCOCCOCCOCCOCCOCCOCCOCCOCCOCCOCCOCCOCCOCCOCCOCCOCCOCCOCCOC please.
0.59

Specify fraction unbound at 1 h, 20 µM for COCCOCCOCCOCCOCCOCCOCCOCCOCCOCCOCCOCCNC(=O)c1nc(N)c(C(=O)NCCOCCOCCOCCOCCOCCOCCOCCOCCOCCOCCOCCOC)nc1N and stop.
1

###

Give dose excreted at 6 h for every item shown.
Test: Drug excretion in Sprague-Dawley rat urine administered via tail vein measured after 6 hrs by HPLC analysis
Type: ADME
Conditions: iv, read-out: Ae
# output: bare number, implied unit %

Return the recorded dose excreted at 6 h value; entry: COCCOCCOCCOCCOCCOCCOCCOCCOCCOCCOCCOCCCNc1nc(C(=O)NCCOCCOCCOCCOCCOCCOCCOCCOCCOCCOCCOCCOC)c(NCCCOCCOCCOCCOCCOCCOCCOCCOCCOCCOCCOCCOC)nc1C(=O)NCCOCCOCCOCCOCCOCCOCCOCCOCCOCCOCCOCCOC
97

Input COCCOCCOCCOCCOCCOCCOCCOCCNC(=O)c1nc(N)c(C(=O)NCCOCCOCCOCCOCCOCCOCCOCCOC)nc1N , output reported dose excreted at 6 h.
45

Return the recorded dose excreted at 6 h value; entry: COCCOCCOCCOCCOCCOCCOCCOCCOCCOCCOCCOCCCNc1nc(C(=O)NCCOCCOCCOCCOCCOCCOCCOCCOCCOCCOCCOCCOCCOCCOCCOCCOCCOCCOCCOCCOCCOCCOCCOCCOC)c(NCCCOCCOCCOCCOCCOCCOCCOCCOCCOCCOCCOCCOC)nc1C(=O)NCCOCCOCCOCCOCCOCCOCCOCCOCCOCCOCCOCCOCCOCCOCCOCCOCCOCCOCCOCCOCCOCCOCCOCCOC
89

Report dose excreted at 6 h for COCCOCCOCCOCCOCCOCCOCCOCCCNc1nc(C(=O)NCCOCCOCCOCCOCCOCCOCCOCCOCCOCCOCCOCCOC)c(NCCCOCCOCCOCCOCCOCCOCCOCCOC)nc1C(=O)NCCOCCOCCOCCOCCOCCOCCOCCOCCOCCOCCOCCOC
87

###

Test: Drug excretion in Sprague-Dawley rat urine administered via tail vein measured after 6 hrs by HPLC analysis
Format: ADME
Details: iv, read-out: Ae
property-name: dose excreted at 6 h (%)
Answer with a number only, understood to be in %.

Identify measured dose excreted at 6 h corresponding to O=C(NCC(O)CO)c1nc(NC[C@H](O)CO)c(C(=O)NCC(O)CO)nc1NC[C@H](O)CO (stereo partly specified)
88

Read the entry CCCNc1nc(C(=O)NCCOCCOCCOCCOCCOCCOCCOCCOCCOCCOCCOCCOCCOCCOCCOCCOCCOCCOCCOCCOCCOCCOCCOCCOC)c(NCCC)nc1C(=O)NCCOCCOCCOCCOCCOCCOCCOCCOCCOCCOCCOCCOCCOCCOCCOCCOCCOCCOCCOCCOCCOCCOCCOCCOC and write its reported dose excreted at 6 h.
85

Give the value of dose excreted at 6 h reported for the following: COCCOCCOCCOCCOCCOCCOCCOCCOCCOCCOCCOCCOCCOCCOCCOCCOCCOCCOCCOCCOCCOCCOCCOCCCNc1nc(C(=O)NCCOCCOCCOCCOCCOCCOCCOCCOCCOCCOCCOCCOCCOCCOCCOCCOCCOCCOCCOCCOCCOCCOCCOCCOC)c(NCCCOCCOCCOCCOCCOCCOCCOCCOCCOCCOCCOCCOCCOCCOCCOCCOCCOCCOCCOCCOCCOCCOCCOCCOC)nc1C(=O)NCCOCCOCCOCCOCCOCCOCCOCCOCCOCCOCCOCCOCCOCCOCCOCCOCCOCCOCCOCCOCCOCCOCCOCCOC
86

Look up and report measured dose excreted at 6 h for this entry: COCCOCCOCCOCCCNc1nc(C(=O)NCCOCCOCCOCCOCCOCCOCCOCCOCCOCCOCCOCCOC)c(NCCCOCCOCCOCCOC)nc1C(=O)NCCOCCOCCOCCOCCOCCOCCOCCOCCOCCOCCOCCOC
86

In one line, give reported dose excreted at 6 h of the entry COCCOCCOCCOCCNC(=O)c1nc(N)c(C(=O)NCCOCCOCCOCCOC)nc1N .
41

Return the recorded dose excreted at 6 h value; entry: COCCOCCOCCNc1nc(C(=O)NCCOCCOCCOCCOCCOCCOCCOCCOCCOCCOCCOCCOCCOCCOCCOCCOCCOCCOCCOCCOCCOCCOCCOCCOC)c(NCCOCCOCCOC)nc1C(=O)NCCOCCOCCOCCOCCOCCOCCOCCOCCOCCOCCOCCOCCOCCOCCOCCOCCOCCOCCOCCOCCOCCOCCOCCOC
96

Please look at this molecule and report its dose excreted at 6 h: COCCOCCOCCOCCOCCOCCOCCOCCOCCOCCOCCOCCOCCOCCOCCOCCOCCOCCOCCOCCOCCOCCOCCOCCNC(=O)c1nc(N)c(C(=O)NCCOCCOCCOCCOCCOCCOCCOCCOCCOCCOCCOCCOCCOCCOCCOCCOCCOCCOCCOCCOCCOCCOCCOCCOC)nc1N
96

// Input: COCCOCCOCCOCCOCCOCCOCCOCCCNc1nc(C(=O)NCCOCCOCCOCCOCCOCCOCCOCCOCCOCCOCCOCCOCCOCCOCCOCCOCCOCCOCCOCCOCCOCCOCCOCCOC)c(NCCCOCCOCCOCCOCCOCCOCCOCCOC)nc1C(=O)NCCOCCOCCOCCOCCOCCOCCOCCOCCOCCOCCOCCOCCOCCOCCOCCOCCOCCOCCOCCOCCOCCOCCOCCOC . Output its dose excreted at 6 h only.
92

Consider the molecule Nc1nc(C(=O)N[C@H](CO)C(=O)O)c(N)nc1C(=O)N[C@H](CO)C(=O)O [RELMAPIRAZIN] and give its recorded dose excreted at 6 h.
90

Tell me its dose excreted at 6 h given CNC(=O)c1c(I)c(NC(C)=O)c(I)c(C(=O)[O-])c1I.[Na+] [IOTHALAMATE SODIUM] as the entry.
80

State its dose excreted at 6 h for this molecule: COCCOCCOCCOCCOCCOCCOCCOCCOCCOCCOCCOCCNC(=O)c1nc(N)c(C(=O)NCCOCCOCCOCCOCCOCCOCCOCCOCCOCCOCCOCCOC)nc1N
71

###

Record form. Attribute: half-life. Fill in for each entry.
Experiment: Terminal elimination half life in Sprague-Dawley rat plasma
Type: ADME, cell-free
Settings: read-out: beta t1/2
Enter your answer as a number in min; do not include the unit.

Identify measured half-life associated with COCCOCCOCCOCCOCCOCCOCCOCCOCCOCCOCCOCCOCCOCCOCCOCCOCCOCCOCCOCCOCCOCCOCCOCCNC(=O)c1nc(N)c(C(=O)NCCOCCOCCOCCOCCOCCOCCOCCOCCOCCOCCOCCOCCOCCOCCOCCOCCOCCOCCOCCOCCOCCOCCOCCOC)nc1N
25

Retrieve half-life measured for COCCOCCOCCOCCOCCOCCOCCOCCOCCOCCOCCOCCCNc1nc(C(=O)NCCOCCOCCOCCOCCOCCOCCOCCOCCOCCOCCOCCOC)c(NCCCOCCOCCOCCOCCOCCOCCOCCOCCOCCOCCOCCOC)nc1C(=O)NCCOCCOCCOCCOCCOCCOCCOCCOCCOCCOCCOCCOC and print it.
19

Specify half-life for COCCOCCOCCOCCOCCOCCOCCOCCOCCOCCOCCOCCCNc1nc(C(=O)NCCOCCOCCOCCOCCOCCOCCOCCOCCOCCOCCOCCOCCOCCOCCOCCOCCOCCOCCOCCOCCOCCOCCOCCOC)c(NCCCOCCOCCOCCOCCOCCOCCOCCOCCOCCOCCOCCOC)nc1C(=O)NCCOCCOCCOCCOCCOCCOCCOCCOCCOCCOCCOCCOCCOCCOCCOCCOCCOCCOCCOCCOCCOCCOCCOCCOC and stop.
31

Provide only the value of recorded half-life for COCCOCCOCCOCCOCCOCCOCCOCCOCCOCCOCCOCCNC(=O)c1nc(N)c(C(=O)NCCOCCOCCOCCOCCOCCOCCOCCOCCOCCOCCOCCOC)nc1N
20
